FYI, the data here is from ChEMBL document CHEMBL1123423.

System: Rattus norvegicus
runDescription: Compound was evaluated for percent tranexamic acid recovered in rat urine within 24 hr after oral administration of 0.1 mmol/kg of body weight per mole of pro drug
Type: ADME, organism-based
measurementConditions: in vivo
measurementLabel: Absorption

1) CC(OC(=O)C(C)C)OC(=O)[C@H]1CC[C@H](CN)CC1.Cl (stereo not given in full): 71%
2) CC(OC(=O)C(C)(C)C)OC(=O)[C@H]1CC[C@H](CN)CC1.Cl (stereo not given in full): 43%
3) CCOC(=O)OC(C)OC(=O)[C@H]1CC[C@H](CN)CC1.Cl (stereo not given in full): 50%
4) C[C@]1(CN)CC[C@H](C(=O)OCc2oc(=O)oc2COC(=O)[C@H]2CC[C@H](CN)CC2)CC1.Cl.Cl: 54%
5) CC(C)C(=O)OCOC(=O)[C@H]1CC[C@H](CN)CC1.Cl: 54%
